- procedure_summary: chemical genetic growth profiling, strain panel (AID 1159580);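 further: tested at 20 µM; growth read once vehicle control cultures reached saturation at 30 °C; 1 = growth at the plate median or of vehicle wells; lower values mean less growth of the strain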
- protocol_conditions: S. cerevisiae deletion strains, growth OD, locus YNL020C, strain ARK1
Among all 5,500 compounds or so, about 2,000 (36%) were called active. Not shown: some 18% with an inconclusive outcome. No stated cut-off is given here; in the data, active means normalized growth mostly below about 0.91 (no sharp cut-off); inconclusive means no clear call, values can overlap the other calls; inactive means mostly above about 0.92. The list shows a part of the results.
Respond only with the outcome that fits, drawn from active, inactive

CC(C)(C)C(=O)N(Cc1cccnc1)Cc1ccc(Cl)cc1Cl | inactive
CC(C)Cc1ccc(C(C)C(=O)Nc2nn(C)c3ccccc23)cc1 (stereo unspecified) | inactive
COc1ccc2nc3ccccc3c(N)c2c1 | active
CSc1n[nH]c(-c2cc(C(F)(F)F)cc(C(F)(F)F)c2)n1 | inactive
N#Cc1c2ccccc2nc2ccccc12 | inactive

Q: What did this assay record as the result for Fc1cccc(Cl)c1CSc1n[nH]c(-c2cc(C(F)(F)F)cc(C(F)(F)F)c2)n1 ?
A: inactive

====

- procedure_summary: chemical genetic growth profiling, strain panel (AID 1159580)
- protocol_conditions: S. cerevisiae deletion strains, growth OD, locus YER155C, strain BEM2, hits give low values
In all, about 5,500 compounds went through this assay and about 2,000 (36%) were called active. Roughly 18% stayed inconclusive and do not appear here. The list shows a part of the results.
metric: normalized growth
Reply: number alone, nothing else.

Answered examples (4):
Nc1ccc(S(=O)(=O)Nc2cnc3ccccc3n2)cc1 | 0.996
Clc1ccccc1C(c1ccccc1)(c1ccccc1)n1ccnc1 | 0.0644
COc1ccc2c3c([nH]c2c1)C(C)=NCC3 | 1.01
Cc1ccc(S(=O)(=O)NC(=O)NN2CC3CCCC3C2)cc1 (configuration not stated) | 1

Q: So what does the record say about normalized growth for NNc1nncc2ccccc12 ?
A: 1.02

Q: So what does the record say about normalized growth for NNC(=O)c1ccncc1 ?
A: 1.01

Q: So what does the record say about normalized growth for Cc1cn([C@H]2C[C@H](N=[N+]=[N-])[C@@H](CO)O2)c(=O)[nH]c1=O ?
A: 0.988

Q: So what does the record say about normalized growth for O=c1[nH]cc(F)c(=O)[nH]1 ?
A: 1.01

Q: So what does the record say about normalized growth for CCCOc1ccccc1-c1nc2n[nH]nc2c(=O)[nH]1 ?
A: 1

Q: So what does the record say about normalized growth for Nc1c2ccccc2nc2ccccc12 (tested in a mixture with another compound) ?
A: 0.89

Q: So what does the record say about normalized growth for CCOC(=O)OC(C)OC(=O)C1N2C(=O)C(NC(=O)[C@H](N)c3ccccc3)C2SC1(C)C (some centres not stated) ?
A: 0.992

Q: So what does the record say about normalized growth for CC(C)(Oc1ccc(CCNC(=O)c2ccc(Cl)cc2)cc1)C(=O)O ?
A: 1.01

====

Entries and their measured normalized growth follow.
- procedure_summary: chemical genetic growth profiling, strain panel (AID 1159580)
- protocol_conditions: S. cerevisiae deletion strains, growth OD, locus YDR392W, strain spt3, hits give low values
The whole screen tested about 5,500 compounds, of which about 2,000 (36%) were called active. About 18% were inconclusive and are not listed. Some of the results follow.

Answered examples (2):
N#CC(O[C@@H]1O[C@H](CO[C@@H]2O[C@H](CO)[C@@H](O)[C@H](O)[C@H]2O)[C@@H](O)[C@H](O)[C@H]1O)c1ccccc1 (stereo partly drawn) | 0.974 (inactive)
Cc1cn([C@H]2C[C@H](N=[N+]=[N-])[C@@H](CO)O2)c(=O)[nH]c1=O | 0.924 (inactive)

Now let's try a different one.
Q: So what does the record say about normalized growth for O=C1C(O)=C(O)C(=O)C(O)=C1O ?
A: 1.04 (inactive)

====

- procedure_summary: chemical genetic growth profiling, strain panel (AID 1159580)
- protocol_conditions: S. cerevisiae deletion strains, growth OD, locus YER015W, strain faa2
The whole screen tested about 5,500 compounds, of which about 2,000 (36%) were called active. Roughly 18% stayed inconclusive and do not appear here. No stated cut-off is given here; in the data, active means normalized growth mostly below about 0.91 (no sharp cut-off); inconclusive means no clear call, values can overlap the other calls; inactive means mostly above about 0.92. The list shows a part of the results.
Respond only with the outcome that fits, drawn from yes (active), no (inactive)

Before answering, review these 4 worked examples.
CC(=O)NCc1c(I)c(NC(C)=O)c(I)c(C(=O)O)c1I | no
Cc1cc(-n2c(=O)[nH]c(=O)n(C)c2=O)ccc1Oc1ccc(SC(F)(F)F)cc1 | no
CC(C)=CCCC1(C)C=Cc2c(O)c3c(c(CC=C(C)C)c2O1)OC12C(=CCCC1C(C)(C)O[C@@]2(C/C=C(\C)C(=O)O)C(=O)O)C3=O (stereo not given in full) | yes
O=c1[nH]cc(F)c(=O)[nH]1 | yes

Q: What did this assay record as the result for C#C[C@]1(OC(C)=O)CCC2C3CCC4=CC(=O)CC[C@@H]4C3CC[C@@]21C (stereo not given in full) ?
A: no

====

Entries and their measured normalized growth follow.
- procedure_summary: chemical genetic growth profiling, strain panel (AID 1159580);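 further: tested at 20 µM; growth read once vehicle control cultures reached saturation at 30 °C; 1 = growth at the plate median or of vehicle wells; lower values mean less growth of the strain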
- protocol_conditions: S. cerevisiae deletion strains, growth OD, locus YJL129C, strain trk1, hits give low values
In all, about 5,500 compounds went through this assay and about 2,000 (36%) were called active. Not shown: some 18% with an inconclusive outcome. The list shows a part of the results.
Reply: number alone, nothing else.

Answered examples (3):
COC(=O)C[C@H]1C(C)(C)C(=O)[C@@H]2CC3C4=CC(=O)O[C@@H](c5ccoc5)[C@]4(C)CCC3[C@@]1(C)C2=O (some centres undefined) | 0.965
NNC(=O)c1ccncc1 | 1.02
CC(C)CCCC1(C)C=Cc2c(O)c3c(c(CCC(C)C)c2O1)OC12C(CC4CC1C(C)(C)OC2(CCC(C)C(=O)O)C4O)C3=O (centres undefined) | 0.958

Now let's try a different one.
Q: So what does the record say about normalized growth for CC1(C)CC[C@@]2(C(=O)O)C(C1)C1=CCC3[C@@]4(C)CC[C@H](O)C(C)(C)C4CC[C@@]3(C)[C@]1(C)C[C@@H]2O (some centres undefined) ?
A: 1.02

====

Entries and their measured normalized growth follow.
- procedure_summary: chemical genetic growth profiling, strain panel (AID 1159580);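 further: tested at 20 µM; growth read once vehicle control cultures reached saturation at 30 °C; 1 = growth at the plate median or of vehicle wells; lower values mean less growth of the strain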
- protocol_conditions: S. cerevisiae deletion strains, growth OD, locus YAL030W, strain snc1, hits give low values
About 2,000 (36%) of roughly 5,500 compounds were called active. About 18% were inconclusive and are not listed. This is one part of the list.
Reply: number alone, nothing else.

NC(Cc1c[nH]c2ccccc12)C(=O)O (configuration not stated) | 1.02

Q: So what does the record say about normalized growth for C[C@]12CCC(=O)C=C1CCC1C2[C@@H](O)C[C@@]2(C)C1CC[C@]2(O)C(=O)CO (some centres not stated) ?
A: 1.01

Q: So what does the record say about normalized growth for Nc1c2c(nc3ccccc13)CCCC2 ?
A: 1.01

Q: So what does the record say about normalized growth for O=c1ccc2ccc(O)cc2o1 ?
A: 0.999

Q: So what does the record say about normalized growth for NC12CC3CC(CC(C3)C1)C2 ?
A: 1.01

Q: So what does the record say about normalized growth for NCCC(=O)N[C@@H](Cc1cnc[nH]1)C(=O)O ?
A: 1.01

Q: So what does the record say about normalized growth for Nc1c2c(nc3ccccc13)CCCC2O (configuration not stated) ?
A: 1.01

====

- procedure_summary: chemical genetic growth profiling, strain panel (AID 1159580);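 further: tested at 20 µM; growth read once vehicle control cultures reached saturation at 30 °C; 1 = growth at the plate median or of vehicle wells; lower values mean less growth of the strain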
- protocol_conditions: S. cerevisiae deletion strains, growth OD, locus YLR113W, strain HOG1, hits give low values
About 2,000 (36%) of roughly 5,500 compounds were called active. Inconclusive results (about 18%) are left out. Some of the results follow. Where a SMILES comes first, the peptide text is derived from it. Bridges are numbered along the chain shown (N, C = ends). [ ]: non-standard residue; d: D form. The star is where a group is joined. ξ: configuration not given here. ξDab(CH2SO3H) = NC(CCNCS(=O)(=O)O)C(=O)O; Heptanoyl(6-Me) = CC(C)CCCCC(=O)*; Dab = NCC[CH](N)C(=O)O
Entries and their measured normalized growth follow.
Reply: number alone, nothing else.

Q: So what does the record say about normalized growth for CO[C@@]12[C@@H]3NC3CN1C1=C(C(=O)C(N)=C(C)C1=O)[C@@H]2COC(N)=O (some centres not stated) ?
A: 0.973

Q: So what does the record say about normalized growth for Fc1ccc(NC(=S)N2CCCN(Cc3ccc(Cl)cc3Cl)CC2)cc1 ?
A: 0.821

Q: So what does the record say about normalized growth for N#CC(O[C@@H]1O[C@H](CO[C@@H]2O[C@H](CO)[C@@H](O)[C@H](O)[C@H]2O)[C@@H](O)[C@H](O)[C@H]1O)c1ccccc1 (some centres not stated) ?
A: 1.03

Q: So what does the record say about normalized growth for Nc1c2c(nc3ccccc13)CCCC2 ?
A: 1.02

Q: So what does the record say about normalized growth for NNc1nncc2ccccc12 ?
A: 1.06

Q: So what does the record say about normalized growth for NC12CC3CC(CC(C3)C1)C2 ?
A: 1.04

Q: So what does the record say about normalized growth for Cc1oc(C(C)(C)C)cc1-c1cc(N)n(-c2ccc(I)cc2)n1 ?
A: 0.815

Q: So what does the record say about normalized growth for C/C=C(/C)C(=O)O[C@H]1CC[C@@]2(C)[C@@H]3CC[C@H]4[C@]5(O)C[C@H](O)[C@@]6(O)[C@@H](CN7C[C@@H](C)CC[C@H]7[C@@]6(C)O)[C@]5(O)C[C@@]42O[C@]13O ?
A: 0.995

Q: So what does the record say about normalized growth for Cc1ccc(S(=O)(=O)NC(=O)NN2CC3CCCC3C2)cc1 (configuration not stated) ?
A: 0.974

Q: So what does the record say about normalized growth for NCCC(=O)N[C@@H](Cc1cnc[nH]1)C(=O)O ?
A: 0.985

Q: So what does the record say about normalized growth for COC1=C(O)C(=O)c2c(cc3oc(C(C)=O)c(O)c3c2O)C1=O ?
A: 1.04

Q: So what does the record say about normalized growth for C[N+](C)(C)C[C@H](O)CC(=O)[O-] ?
A: 1.01

Q: So what does the record say about normalized growth for COc1ccc2c(c1)c(CC(=O)O)c(C)n2C(=O)c1ccc(Cl)cc1 ?
A: 0.874

Q: So what does the record say about normalized growth for CCC(C)C1NC(=O)C(CCNCS(=O)(=O)O)NC(=O)C(NC(=O)C(CCNCS(=O)(=O)O)NC(=O)C(NC(=O)C(CCNCS(=O)(=O)O)NC(=O)CCCCC(C)C)C(C)O)CCNC(=O)C(C(C)O)NC(=O)C(CCNCS(=O)(=O)O)NC(=O)C(CCNCS(=O)(=O)O)NC(=O)C(C(C)CC)NC1=O (configuration not stated) ({Heptanoyl(6-Me)}-[ξDab(CH2SO3H)]T[ξDab(CH2SO3H)][Dab][ξDab(CH2SO3H)]II[ξDab(CH2SO3H)][ξDab(CH2SO3H)]T; lactam 4-C; configuration not given here) ?
A: 1.1

Q: So what does the record say about normalized growth for COC(=O)Nc1nc2ccc(Sc3ccccc3)cc2[nH]1 ?
A: 0.957

Q: So what does the record say about normalized growth for Cc1cc(C(C)(C)C)c(O)c(C(C)(C)C)c1 ?
A: 0.85

Q: So what does the record say about normalized growth for COC(=O)Nc1nc2ccc(S(=O)c3ccccc3)cc2[nH]1 (configuration not stated) ?
A: 0.982
